Target: T1, recombinant His-tagged Der p2 (dust mite, UniProt P49278 18-146)
T1 construct: also called Der p2-His; Der p2-HIS; not shown: His tag
T1 sequence (looked up): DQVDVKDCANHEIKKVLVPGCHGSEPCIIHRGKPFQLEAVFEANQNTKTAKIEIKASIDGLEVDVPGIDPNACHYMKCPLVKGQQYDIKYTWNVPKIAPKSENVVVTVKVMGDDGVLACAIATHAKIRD
Assay: ELISA, antigen coated
Readings of EC50 for the listed binders
Could you give me the number in mg/L? Just the number is fine.

// solved cases for EC50 follow
binder	EC50 (mg/L)
SDAB22111-1-B1 (VHH, anti-Der p2 alpaca VHH; prokaryotic expression) VHH: DVQLVESGGGLVQPGGSLRLSCAASGFTFALYSMRWYRQAPGKERELVAAITSGRSTNYADSVKGRFTISRDNAKNTVYLQMNSLKPEDTAVYHCNARHPIATLGNYWGQGTPVTVSS	8.23
SDAB22111-1-C1 (VHH, anti-Der p2 alpaca VHH; prokaryotic expression) VHH: QVQLVESGGGLVQPGGSLRLSCAASASFVGAYAMYWFRQATGKQRELVAFITSGNSTNYADSVKGRFTISRDYTKNTVYLQMNKLKPEDTAVYSCNLVTSRGDYWGQGTQVTVSS	1.11
SDAB22111-1-D6 (VHH, anti-Der p2 alpaca VHH; prokaryotic expression) VHH: DVQLVESGGGLVQPGGSLRLSCVASGLTFSYYDMKWHRQAPGKERELVAAIIEGGRTMYADSVKGRFTISRDSPKKSVYLQMNNLKSEDTAVYYCNAVRARFRGLGNDDAWGQGTQVTVSS	9.66

Task: EC50 lookup needed for SDAB22111-1-H12 (VHH, anti-Der p2 alpaca VHH; prokaryotic expression) VHH: QVQLVESGGGLVQPGGSLRLSCAASRSIDRFPAMGWYRQAPGKKRELVAAISSANTRTKYADSVKGRFTISRDNAENTMYLQMNSLKPEDTAVYYCNVFPRPVQGYWGQGTQVTVSS , thanks.
Result: 2.67
